Experimental Target: DYRK4 (Homo sapiens, UniProt Q9NR20)
Construct: purchased Invitrogen (SelectScreen platform)
Sequence (Q9NR20 1-520): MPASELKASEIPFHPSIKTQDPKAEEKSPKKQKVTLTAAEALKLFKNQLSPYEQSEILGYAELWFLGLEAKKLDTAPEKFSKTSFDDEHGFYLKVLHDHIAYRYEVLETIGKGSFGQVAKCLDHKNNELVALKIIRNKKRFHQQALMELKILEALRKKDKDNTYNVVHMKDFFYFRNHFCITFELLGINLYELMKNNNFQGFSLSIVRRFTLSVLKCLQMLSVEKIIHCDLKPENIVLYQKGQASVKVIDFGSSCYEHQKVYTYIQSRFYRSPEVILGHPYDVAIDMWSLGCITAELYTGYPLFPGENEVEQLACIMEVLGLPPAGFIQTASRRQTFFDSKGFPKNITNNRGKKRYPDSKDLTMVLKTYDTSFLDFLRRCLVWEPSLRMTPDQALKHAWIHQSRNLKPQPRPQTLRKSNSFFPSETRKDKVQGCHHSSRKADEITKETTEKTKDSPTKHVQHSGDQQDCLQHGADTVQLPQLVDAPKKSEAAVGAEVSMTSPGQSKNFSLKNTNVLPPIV
Test Protocol: SelectScreen kinase specificity survey
Format: biochemical
Condition: DYRK4; estimated, abridged dose response curve; read-out: Kinase inhibitory activity EC50
Protocol: Testing of the compounds described in this invention was carried out using the SelectScreen™ platform from Invitrogen, Inc. (Carlsbad. Calif., USA) and the details of its performance are readily viewed via the web by linking to: http://www.invitrogen.com/downloads/SelectScrn_Brochure.pdf. Briefly, the approach is based on treating each specific kinase with a unique substrate and optical reporter system in the presence of ATP at 100 micromolar. […]
Readout Name: EC50

Can you share its EC50? I mean this molecule: CN(C)CCCNc1ccc2ncn3c4ccc5[nH]ncc5c4c(=O)c1c23
> 5 µM

====

Each entry below lists one item and its recorded concentration at which cell proliferation was inhibited (BrdU) value.
Test system: MdaMb231 cells
Test Protocol: BrdU cell proliferation assay
Format: cell-based
Condition: MdaMb231 cells, 24 hour treatment
# unit: µM | format: bare number

These recorded examples may help you get a feel for the data.
INSERT INTO measurements (molecule, numeric_readout) VALUES
  ('O=c1c2c(NCCCN3CCOCC3)ccc3ncn(c4ccc5[nH]ncc5c14)c32', 20),
  ('CN(C)CCCNc1ccc2ncn3c4ccc5[nH]ncc5c4c(=O)c1c23', 2.5),
  ('CCN(CC)CCCNc1ccc2ncn3c4ccc5[nH]ncc5c4c(=O)c1c23', 20),
  ('CN(C)CCNc1ccc2ncn3c4ccc5[nH]ncc5c4c(=O)c1c23', 2.5);

// map CC(CCN1CCOCC1)Nc1ccc2ncn3c4ccc5[nH]ncc5c4c(=O)c1c23 (centres unmarked) to recorded concentration at which cell proliferation was inhibited (BrdU) (system: MdaMb231 cells)
20

====

Let's look at some molecules and their measured EC50.
Experimental Target: LCK (Homo sapiens, UniProt P06239)
Sequence (P06239 whole entry): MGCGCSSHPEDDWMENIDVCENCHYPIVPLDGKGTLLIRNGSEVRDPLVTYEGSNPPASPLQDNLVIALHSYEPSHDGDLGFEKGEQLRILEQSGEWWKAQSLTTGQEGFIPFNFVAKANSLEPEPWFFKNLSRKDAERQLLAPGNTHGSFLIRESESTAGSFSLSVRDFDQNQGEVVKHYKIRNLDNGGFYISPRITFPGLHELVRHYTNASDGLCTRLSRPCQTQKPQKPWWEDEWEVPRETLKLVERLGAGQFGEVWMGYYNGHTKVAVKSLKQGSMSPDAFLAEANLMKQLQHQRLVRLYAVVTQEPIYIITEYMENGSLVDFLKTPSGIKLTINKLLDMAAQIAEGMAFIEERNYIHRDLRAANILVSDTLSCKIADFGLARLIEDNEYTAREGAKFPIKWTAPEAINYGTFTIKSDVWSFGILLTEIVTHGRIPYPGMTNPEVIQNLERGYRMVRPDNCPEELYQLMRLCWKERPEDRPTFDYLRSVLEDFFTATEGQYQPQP
Test Protocol: SelectScreen kinase specificity survey
Condition: estimated, abridged dose response curve, read-out: Kinase inhibitory activity EC50
Answer format: numeric, nM implied, no suffix.

INSERT INTO assay_data (molecule, unit_spec, numeric_readout) VALUES
  ('CCN(CC)CCNc1ccc2ncn3c4ccc(O)cc4c(=O)c1c23 [Symadex, reference compound]', 'nM', 824);

Look up EC50 for this molecule: CN(C)CCCNc1ccc2ncn3c4ccc5[nH]ncc5c4c(=O)c1c23
345

====

Experimental Target: CSNK1G1 (CK1 gamma 1) (Homo sapiens, UniProt Q9HCP0)
Sequence (Q9HCP0 whole entry): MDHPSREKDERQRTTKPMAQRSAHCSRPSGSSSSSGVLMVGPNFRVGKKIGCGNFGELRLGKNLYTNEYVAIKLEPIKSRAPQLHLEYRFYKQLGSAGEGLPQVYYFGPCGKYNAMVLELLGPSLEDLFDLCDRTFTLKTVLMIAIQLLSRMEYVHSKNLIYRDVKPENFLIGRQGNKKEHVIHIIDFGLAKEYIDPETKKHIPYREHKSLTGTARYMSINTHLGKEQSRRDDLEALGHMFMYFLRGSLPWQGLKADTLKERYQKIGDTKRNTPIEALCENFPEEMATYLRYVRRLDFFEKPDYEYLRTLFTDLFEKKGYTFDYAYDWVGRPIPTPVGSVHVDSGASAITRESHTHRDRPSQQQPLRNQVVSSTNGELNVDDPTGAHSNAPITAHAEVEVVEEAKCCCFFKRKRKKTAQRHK
Test Protocol: SelectScreen kinase specificity survey
Condition: estimated, abridged dose response curve, read-out: Kinase inhibitory activity EC50
Readout Name: EC50

INSERT INTO assay_data (compound, readout_name, result) VALUES
  ('CCN(CC)CCNc1ccc2ncn3c4ccc(O)cc4c(=O)c1c23 [Symadex, reference compound]', 'EC50', '> 5 µM');

Let's switch to this compound now.
Any idea what EC50 came out for CN(C)CCCNc1ccc2ncn3c4ccc5[nH]ncc5c4c(=O)c1c23 on CSNK1G1 (CK1 gamma 1) (Homo sapiens, UniProt Q9HCP0)?
> 5 µM

====

Experimental Target: PTK2B (FAK2, PYK2) (Homo sapiens, UniProt Q14289)
Sequence (Q14289 whole entry): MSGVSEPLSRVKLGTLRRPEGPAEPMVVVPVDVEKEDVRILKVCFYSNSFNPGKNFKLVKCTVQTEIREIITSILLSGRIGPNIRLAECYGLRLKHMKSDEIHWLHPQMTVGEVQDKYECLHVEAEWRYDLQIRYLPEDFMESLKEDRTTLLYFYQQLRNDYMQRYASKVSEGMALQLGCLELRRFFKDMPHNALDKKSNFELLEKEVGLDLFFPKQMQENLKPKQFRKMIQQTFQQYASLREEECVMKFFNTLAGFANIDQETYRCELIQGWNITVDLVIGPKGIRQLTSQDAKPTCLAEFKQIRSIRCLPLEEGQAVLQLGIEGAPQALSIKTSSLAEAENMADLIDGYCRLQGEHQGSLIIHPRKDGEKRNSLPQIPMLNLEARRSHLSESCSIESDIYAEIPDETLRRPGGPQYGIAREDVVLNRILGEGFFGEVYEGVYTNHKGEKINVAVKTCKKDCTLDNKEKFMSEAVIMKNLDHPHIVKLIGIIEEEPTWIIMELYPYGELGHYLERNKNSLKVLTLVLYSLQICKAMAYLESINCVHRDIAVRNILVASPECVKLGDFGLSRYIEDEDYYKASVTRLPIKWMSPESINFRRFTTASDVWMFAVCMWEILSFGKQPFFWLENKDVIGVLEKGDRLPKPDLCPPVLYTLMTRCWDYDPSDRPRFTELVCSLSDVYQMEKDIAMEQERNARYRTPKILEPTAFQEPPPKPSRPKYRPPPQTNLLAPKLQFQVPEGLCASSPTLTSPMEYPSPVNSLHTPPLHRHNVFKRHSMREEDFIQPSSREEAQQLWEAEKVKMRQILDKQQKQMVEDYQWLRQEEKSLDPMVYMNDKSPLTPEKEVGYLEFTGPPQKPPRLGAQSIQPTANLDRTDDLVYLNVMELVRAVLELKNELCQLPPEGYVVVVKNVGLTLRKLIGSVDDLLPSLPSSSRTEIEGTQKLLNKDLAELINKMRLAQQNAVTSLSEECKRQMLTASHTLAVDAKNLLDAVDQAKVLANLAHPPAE
Test Protocol: SelectScreen kinase specificity survey
Condition: estimated, abridged dose response curve, read-out: Kinase inhibitory activity EC50
Readout Name: EC50

INSERT INTO measurements (compound, readout_name, result) VALUES
  ('CCN(CC)CCNc1ccc2ncn3c4ccc(O)cc4c(=O)c1c23 [Symadex, reference compound]', 'EC50', '> 5 µM');

Could you now consider this next compound?
Recorded EC50 for CN(C)CCCNc1ccc2ncn3c4ccc5[nH]ncc5c4c(=O)c1c23 [Compound (IV)] , please?
> 5 µM

====

Experimental Target: DYRK4 (Homo sapiens)
Construct: purchased Invitrogen (SelectScreen platform)
Test Protocol: SelectScreen kinase specificity survey
Format: biochemical
Readout Name: EC50

Param item = CCN(CC)CCNc1ccc2ncn3c4ccc(O)cc4c(=O)c1c23 [Symadex, reference compound] ; retrieve measured EC50.
> 5 µM

====

Experimental Target: MAPK12 (p38 gamma) (Homo sapiens, UniProt P53778)
Sequence (P53778 whole entry): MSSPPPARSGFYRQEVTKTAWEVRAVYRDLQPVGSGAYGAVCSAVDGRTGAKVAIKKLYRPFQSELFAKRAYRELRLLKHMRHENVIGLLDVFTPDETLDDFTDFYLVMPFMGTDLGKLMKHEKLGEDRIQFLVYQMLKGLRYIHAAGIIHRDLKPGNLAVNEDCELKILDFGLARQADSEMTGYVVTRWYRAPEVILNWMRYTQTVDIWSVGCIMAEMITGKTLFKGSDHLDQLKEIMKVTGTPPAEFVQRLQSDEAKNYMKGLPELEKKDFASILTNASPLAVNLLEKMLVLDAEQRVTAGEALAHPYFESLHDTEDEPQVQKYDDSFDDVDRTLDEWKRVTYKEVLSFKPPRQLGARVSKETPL
Test Protocol: SelectScreen kinase specificity survey
Condition: estimated, abridged dose response curve, read-out: Kinase inhibitory activity EC50
pEC50: −log10 of the molar value.
Each item that follows carries a reported pEC50.

INSERT INTO measurements (compound, readout_name, result) VALUES
  ('CCN(CC)CCNc1ccc2ncn3c4ccc(O)cc4c(=O)c1c23 [Symadex, reference compound]', 'pEC50', '< 5.30');

# evaluate next
Param item = CN(C)CCCNc1ccc2ncn3c4ccc5[nH]ncc5c4c(=O)c1c23 ; retrieve measured pEC50.
< 5.30

====

Experimental Target: GRK7 (Homo sapiens, UniProt Q8WTQ7)
Construct: purchased Invitrogen (SelectScreen platform)
Test Protocol: SelectScreen kinase specificity survey
Assay type: biochemical
Readout Name: EC50

Reported EC50 for CCN(CC)CCNc1ccc2ncn3c4ccc(O)cc4c(=O)c1c23 [Symadex, reference compound] : what is it?
> 5 µM

====

Experimental Target: FYN (Homo sapiens)
Sequence (P06241 whole entry): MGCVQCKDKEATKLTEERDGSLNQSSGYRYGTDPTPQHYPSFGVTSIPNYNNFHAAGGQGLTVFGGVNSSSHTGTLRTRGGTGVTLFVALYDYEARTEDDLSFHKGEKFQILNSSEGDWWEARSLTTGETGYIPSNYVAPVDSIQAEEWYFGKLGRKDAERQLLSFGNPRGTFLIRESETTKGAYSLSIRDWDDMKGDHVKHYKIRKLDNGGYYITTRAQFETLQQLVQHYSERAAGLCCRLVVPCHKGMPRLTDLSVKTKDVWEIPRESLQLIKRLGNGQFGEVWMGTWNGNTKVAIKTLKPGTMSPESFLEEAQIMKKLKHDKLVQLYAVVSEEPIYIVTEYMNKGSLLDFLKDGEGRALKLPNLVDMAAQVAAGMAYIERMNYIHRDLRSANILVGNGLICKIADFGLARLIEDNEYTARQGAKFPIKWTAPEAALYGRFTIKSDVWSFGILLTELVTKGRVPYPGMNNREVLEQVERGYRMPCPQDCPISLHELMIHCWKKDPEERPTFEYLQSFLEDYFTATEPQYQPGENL
Test Protocol: SelectScreen kinase specificity survey
Condition: estimated, abridged dose response curve, read-out: Kinase inhibitory activity EC50
Readout Name: EC50 (nM)
Dear colleague, please return just the value in nM, with no unit written.

Could you share which EC50 value was measured for CN(C)CCCNc1ccc2ncn3c4ccc5[nH]ncc5c4c(=O)c1c23 [Compound (IV)] ?
754

====

Experimental Target: NTRK3 (TRKC) (Homo sapiens, UniProt Q16288)
Construct: purchased Invitrogen, Inc. (SelectScreen platform)
Sequence (Q16288 32-839): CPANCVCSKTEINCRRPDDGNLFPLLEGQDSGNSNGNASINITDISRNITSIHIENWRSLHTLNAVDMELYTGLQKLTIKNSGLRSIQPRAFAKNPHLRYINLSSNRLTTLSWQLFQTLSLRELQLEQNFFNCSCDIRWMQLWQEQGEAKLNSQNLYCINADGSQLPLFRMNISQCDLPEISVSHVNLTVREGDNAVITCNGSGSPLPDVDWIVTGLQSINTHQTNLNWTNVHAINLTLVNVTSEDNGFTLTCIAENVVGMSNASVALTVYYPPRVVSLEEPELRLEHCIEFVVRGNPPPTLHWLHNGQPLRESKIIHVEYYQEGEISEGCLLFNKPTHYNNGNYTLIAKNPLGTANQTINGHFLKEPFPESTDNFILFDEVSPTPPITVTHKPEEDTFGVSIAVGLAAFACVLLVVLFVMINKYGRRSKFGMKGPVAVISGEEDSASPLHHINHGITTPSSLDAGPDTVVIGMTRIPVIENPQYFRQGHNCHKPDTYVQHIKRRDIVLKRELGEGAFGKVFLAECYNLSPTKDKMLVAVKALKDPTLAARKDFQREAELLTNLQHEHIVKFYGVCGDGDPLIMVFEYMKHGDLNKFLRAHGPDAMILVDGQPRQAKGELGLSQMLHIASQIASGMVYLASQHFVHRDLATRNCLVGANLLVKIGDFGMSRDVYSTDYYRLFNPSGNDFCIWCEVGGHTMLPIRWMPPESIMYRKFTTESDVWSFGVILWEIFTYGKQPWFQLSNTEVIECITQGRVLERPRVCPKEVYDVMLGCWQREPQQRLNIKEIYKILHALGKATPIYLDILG
Test Protocol: SelectScreen kinase specificity survey
Assay type: biochemical
Readout Name: EC50 (µM)
Only the number, expressed in µM, is required.

// lookup EC50 | system=NTRK3 (TRKC) (Homo sapiens, UniProt Q16288) | key= CCN(CC)CCNc1ccc2ncn3c4ccc(O)cc4c(=O)c1c23 [Symadex, reference compound]
3.72

====

// reported EC50 for each item listed
Experimental Target: UniProtKB P53350
Sequence (P53350 whole entry): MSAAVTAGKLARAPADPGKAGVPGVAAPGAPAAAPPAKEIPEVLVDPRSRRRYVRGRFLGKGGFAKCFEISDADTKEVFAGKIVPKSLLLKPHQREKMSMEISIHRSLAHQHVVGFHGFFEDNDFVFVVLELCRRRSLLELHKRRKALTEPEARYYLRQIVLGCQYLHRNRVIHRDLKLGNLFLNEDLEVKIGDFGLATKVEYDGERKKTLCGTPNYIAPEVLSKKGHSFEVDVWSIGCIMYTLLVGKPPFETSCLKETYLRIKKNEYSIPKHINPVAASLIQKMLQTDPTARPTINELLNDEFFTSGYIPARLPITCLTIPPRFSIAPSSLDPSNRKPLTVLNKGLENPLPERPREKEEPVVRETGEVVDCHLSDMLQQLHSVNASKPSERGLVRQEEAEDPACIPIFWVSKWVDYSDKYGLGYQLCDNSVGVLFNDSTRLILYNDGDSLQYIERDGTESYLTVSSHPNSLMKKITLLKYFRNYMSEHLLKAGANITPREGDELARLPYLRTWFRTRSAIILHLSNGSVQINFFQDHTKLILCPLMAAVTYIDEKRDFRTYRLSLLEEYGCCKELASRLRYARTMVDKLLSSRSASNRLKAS
Test Protocol: SelectScreen kinase specificity survey
Condition: estimated, abridged dose response curve, read-out: Kinase inhibitory activity EC50

INSERT INTO results (molecule, result) VALUES
  ('CN(C)CCCNc1ccc2ncn3c4ccc5[nH]ncc5c4c(=O)c1c23 [Compound (IV)]', '> 5 µM');

Now let's try a different one.
# get_value(readout='EC50', item= CCN(CC)CCNc1ccc2ncn3c4ccc(O)cc4c(=O)c1c23 [Symadex, reference compound] )
> 5 µM

====

Experimental Target: IRAK4 (Homo sapiens, UniProt Q9NWZ3)
Construct: purchased Invitrogen, Inc. (SelectScreen platform)
Sequence (Q9NWZ3 whole entry): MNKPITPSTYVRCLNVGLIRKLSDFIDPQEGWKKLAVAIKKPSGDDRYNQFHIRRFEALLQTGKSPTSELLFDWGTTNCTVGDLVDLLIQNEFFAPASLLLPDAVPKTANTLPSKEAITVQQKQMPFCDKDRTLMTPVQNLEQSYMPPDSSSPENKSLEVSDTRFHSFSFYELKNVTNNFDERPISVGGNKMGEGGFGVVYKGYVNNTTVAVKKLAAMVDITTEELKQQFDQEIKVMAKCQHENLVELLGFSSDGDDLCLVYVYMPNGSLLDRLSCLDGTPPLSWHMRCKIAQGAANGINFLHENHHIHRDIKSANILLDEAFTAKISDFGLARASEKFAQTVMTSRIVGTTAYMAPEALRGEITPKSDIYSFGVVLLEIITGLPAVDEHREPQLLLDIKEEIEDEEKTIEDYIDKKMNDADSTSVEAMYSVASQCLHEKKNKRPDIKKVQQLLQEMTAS
Test Protocol: SelectScreen kinase specificity survey
Assay type: biochemical
Condition: estimated, abridged dose response curve, read-out: Kinase inhibitory activity EC50
Readout Name: pEC50
Just so you know, pEC50 here is -log10 of the concentration in molar units; reply with that number alone.

INSERT INTO results (compound, numeric_readout) VALUES
  ('CCN(CC)CCNc1ccc2ncn3c4ccc(O)cc4c(=O)c1c23 [Symadex, reference compound]', 6.07);

So what does the record say about pEC50 for CN(C)CCCNc1ccc2ncn3c4ccc5[nH]ncc5c4c(=O)c1c23 ?
5.48

====

Experimental Target: NTRK2 (TRKB) (Homo sapiens)
Construct: purchased Invitrogen (SelectScreen)
Test Protocol: SelectScreen kinase specificity survey
Format: biochemical
Condition: NTRK2 (TRKB); estimated, abridged dose response curve; read-out: Kinase inhibitory activity EC50
Description: Testing of the compounds described in this invention was carried out using the SelectScreen™ platform from Invitrogen, Inc. (Carlsbad. Calif., USA) and the details of its performance are readily viewed via the web by linking to: http://www.invitrogen.com/downloads/SelectScrn_Brochure.pdf. Briefly, the approach is based on treating each specific kinase with a unique substrate and optical reporter system in the presence of ATP at 100 micromolar. […]
Readout Name: pEC50
Notebook: values listed as pEC50 are -log10 of the concentration (mol/L).

Please report the recorded pEC50 for CN(C)CCCNc1ccc2ncn3c4ccc5[nH]ncc5c4c(=O)c1c23 [Compound (IV)] .
6.11
